- System: Oryza sativa
- methodNotes: Growth promoting activity in Oryza sativa assessed as shoot length at 125 ppm on day 5
- Type: functional
Measured Activity, listed per entry for reference.
measuredQuantity: Activity (mm)

INSERT INTO results (molecule, val) VALUES
  ('Cn1cc(Cc2cn(C)c3ccc(Br)cc23)c2cc(Br)ccc21', 11.4),
  ('Brc1ccc2[nH]cc(Cc3c[nH]c4ccc(Br)cc34)c2c1', 12.7),
  ('c1ccc(-c2[nH]c3ccccc3c2Cc2c(-c3ccccc3)[nH]c3ccccc23)cc1', 19.5),
  ('Cn1cc(Cc2cn(C)c3ccc([N+](=O)[O-])cc23)c2cc([N+](=O)[O-])ccc21', 11),
  ('Cn1c(-c2ccccc2)c(Cc2c(-c3ccccc3)n(C)c3ccccc23)c2ccccc21', 17.2),
  ('COc1ccc2c(c1)c(Cc1cn(C)c3ccc(OC)cc13)cn2C', 13.6),
  ('O=C(O)Cc1c[nH]c2ccccc12 [INDOLE-3-ACETIC ACID]', 10.6),
  ('c1ccc2c(Cc3c[nH]c4ccccc34)c[nH]c2c1 [ARUNDINE]', 15.7),
  ('COc1ccc2[nH]cc(Cc3c[nH]c4ccc(OC)cc34)c2c1', 17.6),
  ('Cn1cc(Cc2cn(C)c3ccccc23)c2ccccc21', 12.2),
  ('Cc1[nH]c2ccccc2c1Cc1c(C)[nH]c2ccccc12', 21.1),
  ('Cc1c(Cc2c(C)n(C)c3ccccc23)c2ccccc2n1C', 18.7);
